Target: IL16_1, Q14005
Sequence (Q14005 210-306): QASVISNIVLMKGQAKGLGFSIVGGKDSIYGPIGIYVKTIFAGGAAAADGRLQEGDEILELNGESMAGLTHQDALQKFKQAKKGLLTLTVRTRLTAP
Experiment: holdup assay
Set-up: key: below the threshold = too weak to quantify, mostly under pKd 3.1 to 4
Conditions: plain residues with an end cap or a label only (N-terminal biotin on a linker: ahx)
Recorded Endpoint: pKd
Keep it simple and answer with nothing but the number.

[Q] Item ADENEQVSAV [RAPGEF6, Q8TEU7] has what recorded pKd?
[A] 4.23

Further cases:
[Q] # get_value(readout='pKd', item= AKPQPVDSWV [ARVCF, O00192] )
[A] 4.1
